- measuredOn: Serine/threonine-protein kinase MRCK alpha (Homo sapiens)
- experimentalSetup: at 0.1 µM;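 also: each inhibition figure is a mean value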
measurementName: inhibition (%)
Dear colleague, please return just the value in %, with no unit written.

Exam item: Report inhibition for `Cc1ccc(-c2cc3c(NC(=O)C4CC4)ncnc3o2)cc1`
Marked response: -0.24

Exam item: Using the record for `CCS(=O)(=O)c1ccc(OC)c(Nc2ncc(-c3cccc(C(C)=O)c3)o2)c1` , state its measured inhibition.
Marked response: -0.63

Exam item: Please supply the value of reported inhibition for the item `CNC(=O)c1sc(-n2cnc3cc(OC)c(OC)cc32)cc1OCc1ccccc1C(F)(F)F`
Marked response: -1.57

Exam item: Name the recorded inhibition of the compound listed here: `CCS(=O)(=O)c1ccc(OC)c(Nc2ncc(-c3cccc(F)c3)o2)c1`
Marked response: 4.37

Exam item: Specify reported inhibition for the compound shown: `CC1(C)CC(n2cnc(-c3ccc(F)cc3)c2-c2ccnc(N)n2)CC(C)(C)N1`
Marked response: 0.39

Exam item: Look up and state reported inhibition for `CS(=O)(=O)CCNCc1ccc(-c2ccc3ncnc(Nc4ccc(OCc5ccccc5)cc4)c3c2)o1`
Marked response: -0.82

Exam item: Look up and state reported inhibition for `c1cnn2ncc(-c3ccnc(NCCCN4CCOCC4)n3)c2c1`
Marked response: -0.89

Exam item: Give recorded inhibition. `COc1cc(Nc2ncc(-c3ccccc3)o2)cc(OC)c1`
Marked response: -6.08
